Data provenance: patent US7026328B2

Below, each entry is listed with its recorded IC50.
Biological target: α4β1 integrin (Homo sapiens, UniProt P05556+P13612)
Construct: Jurkat™ cells (maintained in log phase growth) were labeled with Calcein AM; endogenous in cells; host or cells: Jurkat cells
Sequence (P13612 34-1032): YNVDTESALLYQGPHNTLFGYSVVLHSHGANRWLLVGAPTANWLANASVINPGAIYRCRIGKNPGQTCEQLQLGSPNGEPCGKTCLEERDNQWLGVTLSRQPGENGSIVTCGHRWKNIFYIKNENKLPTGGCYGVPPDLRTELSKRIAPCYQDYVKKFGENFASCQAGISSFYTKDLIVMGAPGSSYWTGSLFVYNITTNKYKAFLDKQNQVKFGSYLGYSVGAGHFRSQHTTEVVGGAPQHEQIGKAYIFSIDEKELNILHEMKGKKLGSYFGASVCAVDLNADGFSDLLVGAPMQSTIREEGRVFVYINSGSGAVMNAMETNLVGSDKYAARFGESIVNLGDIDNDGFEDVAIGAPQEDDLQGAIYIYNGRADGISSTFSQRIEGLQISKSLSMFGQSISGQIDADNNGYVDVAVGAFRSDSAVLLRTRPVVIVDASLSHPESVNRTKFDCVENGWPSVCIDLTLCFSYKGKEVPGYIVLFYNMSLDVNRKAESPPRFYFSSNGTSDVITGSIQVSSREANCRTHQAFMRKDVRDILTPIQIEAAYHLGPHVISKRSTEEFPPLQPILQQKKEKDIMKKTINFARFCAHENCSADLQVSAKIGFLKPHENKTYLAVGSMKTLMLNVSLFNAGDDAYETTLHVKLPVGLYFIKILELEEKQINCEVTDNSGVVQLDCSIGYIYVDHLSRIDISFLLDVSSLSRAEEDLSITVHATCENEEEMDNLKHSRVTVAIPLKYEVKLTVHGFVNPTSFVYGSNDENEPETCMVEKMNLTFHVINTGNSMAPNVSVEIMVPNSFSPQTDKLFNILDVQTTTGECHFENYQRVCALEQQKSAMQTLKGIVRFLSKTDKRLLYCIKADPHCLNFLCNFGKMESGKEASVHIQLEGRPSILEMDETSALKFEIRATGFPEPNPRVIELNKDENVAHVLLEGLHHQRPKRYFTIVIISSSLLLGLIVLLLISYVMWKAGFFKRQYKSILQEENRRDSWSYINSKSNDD
Sequence (P05556 21-798): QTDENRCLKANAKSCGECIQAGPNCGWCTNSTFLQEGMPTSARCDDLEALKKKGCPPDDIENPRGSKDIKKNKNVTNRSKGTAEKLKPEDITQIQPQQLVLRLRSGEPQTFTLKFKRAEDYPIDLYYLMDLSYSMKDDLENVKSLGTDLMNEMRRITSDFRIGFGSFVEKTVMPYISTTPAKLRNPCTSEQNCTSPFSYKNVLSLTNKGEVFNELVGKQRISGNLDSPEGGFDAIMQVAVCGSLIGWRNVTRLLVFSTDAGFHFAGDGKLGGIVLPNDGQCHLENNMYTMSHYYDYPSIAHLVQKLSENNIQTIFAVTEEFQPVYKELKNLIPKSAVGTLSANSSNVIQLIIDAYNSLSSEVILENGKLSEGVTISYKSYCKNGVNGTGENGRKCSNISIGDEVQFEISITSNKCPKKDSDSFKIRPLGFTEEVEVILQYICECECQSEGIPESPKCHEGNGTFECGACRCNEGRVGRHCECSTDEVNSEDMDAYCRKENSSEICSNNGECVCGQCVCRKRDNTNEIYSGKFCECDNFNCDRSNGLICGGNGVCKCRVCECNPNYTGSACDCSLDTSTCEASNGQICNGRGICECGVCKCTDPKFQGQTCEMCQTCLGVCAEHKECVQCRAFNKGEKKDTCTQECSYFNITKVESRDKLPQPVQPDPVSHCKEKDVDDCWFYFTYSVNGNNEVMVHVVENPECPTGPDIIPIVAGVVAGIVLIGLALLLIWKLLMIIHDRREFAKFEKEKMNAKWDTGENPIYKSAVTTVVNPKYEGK
Experiment: α4β1 Integrin Adhesion Assay: Jurkat Cell Adhesion to Human Plasma Fibronectin
Assay type: cell-based
Settings: Jurkat cells, without the human serum

Recorded results for 6 compounds are shown here.
CCN(CC)c1ncc(N(C)S(=O)(=O)c2ccc(F)cc2F)c(N[C@@H](Cc2ccc(OC(=O)N3CCCC3)cc2)C(=O)O)n1; 8.37 nM
CCN(CC)c1ncc(N(CC)S(=O)(=O)c2ccc(F)cc2F)c(N[C@@H](Cc2ccc(OC(=O)N3CCC3)cc2)C(=O)O)n1; 3.39 nM
CCN(CC)c1ncc(N(CC)S(=O)(=O)c2ccc(F)cc2)c(N[C@@H](Cc2ccc(OC(=O)N3CCCC3)cc2)C(=O)O)n1; 1.59 nM
CCN(CC)c1ncc(N(C)S(=O)(=O)c2ccc(F)cc2)c(N[C@@H](Cc2ccc(OC(=O)N3CCCCC3)cc2)C(=O)O)n1; 6 nM
CCN(CC)c1ncc(N(C)S(=O)(=O)c2ccc(F)cc2)c(N[C@@H](Cc2ccc(OC(=O)N3CCC3)cc2)C(=O)O)n1; 1.66 nM
CCN(CC)c1ncc(N(CC)S(=O)(=O)c2ccc(F)cc2)c(N[C@@H](Cc2ccc(OC(=O)N3CCCCC3)cc2)C(=O)O)n1; 4.67 nM

I would be grateful if you could share the reported IC50 for C#CCN(c1cnc(N(CC)CC)nc1N[C@@H](Cc1ccc(OC(=O)N2CCCC2)cc1)C(=O)O)S(=O)(=O)c1ccc(F)cc1F . 13.7 nM

Moving on to C#CCN(c1cnc(N(CC)CC)nc1N[C@@H](Cc1ccc(OC(=O)N2CCC2)cc1)C(=O)O)S(=O)(=O)c1ccc(F)cc1F 5.24 nM

Moving on to C#CCN(c1cnc(N(CC)CC)nc1N[C@@H](Cc1ccc(OC(=O)N2CCC2)cc1)C(=O)O)S(=O)(=O)c1ccc(F)cc1 5.86 nM

====

Experiment: Cassette Dosing and Serum Analysis for Determination of Bioavailability
Type: in vivo, rat
Conditions: average AUC 0→12 h, male Sprague Dawley rats, single oral cassette dose (6 compounds, total dose 10 mg/kg), plasma
Method: The cassette included 5 test articles and a standard compound, for a total dose of 10 mg/kg. Each compound/test article was converted to the sodium salt with equimolar 1 N NaOH and dissolved in water at 2 mg/mL. The cassette was prepared by mixing equal volumes of each of the six solutions. […] Four SD rats were assigned in each cassette. […] The dosing volume (5 mL/kg) and time were recorded and rats were fed 2 h after dosing. […]
measured parameter: AUC

I would be grateful if you could share the reported AUC for CCN(CC)c1ncc(N(CC)S(=O)(=O)c2ccc(Cl)cc2)c(N[C@@H](Cc2ccc(OC(=O)N3CCCC3)cc2)C(=O)O)n1 . 14.798 (μg/mL)h

Moving on to CCN(CC)c1ncc(N(C)S(=O)(=O)c2ccc(Cl)cc2)c(N[C@@H](Cc2ccc(OC(=O)N3CCC3)cc2)C(=O)O)n1 2.0774 (μg/mL)h

Moving on to CCN(CC)c1ncc(N(CC)S(=O)(=O)c2ccc(F)cc2F)c(N[C@@H](Cc2ccc(OC(=O)N3CCCC3)cc2)C(=O)O)n1 4.7816 (μg/mL)h

Moving on to CCN(CC)c1ncc(N(CC)S(=O)(=O)c2ccc(Cl)cc2)c(N[C@@H](Cc2ccc(OC(=O)N3CCC3)cc2)C(=O)O)n1 2.1113 (μg/mL)h

Moving on to CCN(CC)c1ncc(N(C)S(=O)(=O)c2ccc(Cl)cc2)c(N[C@@H](Cc2ccc(OC(=O)N3CCCC3)cc2)C(=O)O)n1 13.829 (μg/mL)h

Moving on to CCN(CC)c1ncc(N(C)S(=O)(=O)c2ccc(F)cc2)c(N[C@@H](Cc2ccc(OC(=O)N3CCCC3)cc2)C(=O)O)n1 22.271 (μg/mL)h

Moving on to CCN(CC)c1ncc(N(CC)S(=O)(=O)c2ccc(F)cc2)c(N[C@@H](Cc2ccc(OC(=O)N3CCC3)cc2)C(=O)O)n1 0.8979 (μg/mL)h

Moving on to CCN(CC)c1ncc(N(C)S(=O)(=O)c2ccc(F)cc2)c(N[C@@H](Cc2ccc(OC(=O)N3CCCCC3)cc2)C(=O)O)n1 2.1654 (μg/mL)h

Moving on to CCN(CC)c1ncc(N(C)S(=O)(=O)c2ccc(F)cc2F)c(N[C@@H](Cc2ccc(OC(=O)N3CCCC3)cc2)C(=O)O)n1 14.818 (μg/mL)h

Moving on to C#CCN(c1cnc(N(CC)CC)nc1N[C@@H](Cc1ccc(OC(=O)N2CCC2)cc1)C(=O)O)S(=O)(=O)c1ccc(F)cc1 4.7528 (μg/mL)h

Moving on to CCN(CC)c1ncc(N(C)S(=O)(=O)c2ccc(F)cc2F)c(N[C@@H](Cc2ccc(OC(=O)N3CCC3)cc2)C(=O)O)n1 1.283 (μg/mL)h

Moving on to CCN(CC)c1ncc(N(C)S(=O)(=O)c2ccc(F)cc2)c(N[C@@H](Cc2ccc(OC(=O)N3CCC3)cc2)C(=O)O)n1 2.4082 (μg/mL)h

Moving on to C#CCN(c1cnc(N(CC)CC)nc1N[C@@H](Cc1ccc(OC(=O)N2CCCC2)cc1)C(=O)O)S(=O)(=O)c1ccc(F)cc1 90.317 (μg/mL)h

Moving on to CCN(CC)c1ncc(N(CC)S(=O)(=O)c2ccc(F)cc2)c(N[C@@H](Cc2ccc(OC(=O)N3CCCCC3)cc2)C(=O)O)n1 0.5125 (μg/mL)h

Moving on to CCN(CC)c1ncc(N(CC)S(=O)(=O)c2ccc(F)cc2)c(N[C@@H](Cc2ccc(OC(=O)N3CCCC3)cc2)C(=O)O)n1 15.971 (μg/mL)h

Moving on to CCN(CC)c1ncc(N(CC)S(=O)(=O)c2ccc(F)cc2F)c(N[C@@H](Cc2ccc(OC(=O)N3CCC3)cc2)C(=O)O)n1 0.3566 (μg/mL)h

Moving on to C#CCN(c1cnc(N(CC)CC)nc1N[C@@H](Cc1ccc(OC(=O)N2CCCC2)cc1)C(=O)O)S(=O)(=O)c1ccc(F)cc1F 23.808 (μg/mL)h

Moving on to C#CCN(c1cnc(N(CC)CC)nc1N[C@@H](Cc1ccc(OC(=O)N2CCC2)cc1)C(=O)O)S(=O)(=O)c1ccc(F)cc1F 0.8628 (μg/mL)h

====

Molecular target: α4β1 integrin (Homo sapiens, UniProt P05556+P13612)
Construct: Jurkat™ cells (maintained in log phase growth) were labeled with Calcein AM; endogenous in cells; host or cells: Jurkat cells
Assay: α4β1 Integrin Adhesion Assay: Jurkat Cell Adhesion to Human Plasma Fibronectin
Type: cell-based
Details: Jurkat cells, containing human serum
Below, each entry is listed with its recorded IC50.
Give the value in µM but do not write µM after it.

Recorded results for 4 compounds are shown here.
CCN(CC)c1ncc(N(C)S(=O)(=O)c2ccc(F)cc2F)c(N[C@@H](Cc2ccc(OC(=O)N3CCCC3)cc2)C(=O)O)n1; 0.483
CCN(CC)c1ncc(N(C)S(=O)(=O)c2ccc(F)cc2)c(N[C@@H](Cc2ccc(OC(=O)N3CCCCC3)cc2)C(=O)O)n1; 1.57
CCN(CC)c1ncc(N(CC)S(=O)(=O)c2ccc(Cl)cc2)c(N[C@@H](Cc2ccc(OC(=O)N3CCCC3)cc2)C(=O)O)n1; 0.409
CCN(CC)c1ncc(N(CC)S(=O)(=O)c2ccc(F)cc2)c(N[C@@H](Cc2ccc(OC(=O)N3CCC3)cc2)C(=O)O)n1; 0.0862

I would be grateful if you could share the reported IC50 for CCN(CC)c1ncc(N(CC)S(=O)(=O)c2ccc(F)cc2F)c(N[C@@H](Cc2ccc(OC(=O)N3CCC3)cc2)C(=O)O)n1 . 0.0515

Moving on to CCN(CC)c1ncc(N(C)S(=O)(=O)c2ccc(F)cc2F)c(N[C@@H](Cc2ccc(OC(=O)N3CCC3)cc2)C(=O)O)n1 0.0895

====

Target: α4β1 integrin (Homo sapiens, UniProt P05556+P13612)
Construct: Jurkat™ cells (maintained in log phase growth) were labeled with Calcein AM; endogenous in cells; host or cells: Jurkat cells
Experiment: α4β1 Integrin Adhesion Assay: Jurkat Cell Adhesion to Human Plasma Fibronectin
Assay type: cell-based
Conditions: Jurkat cells, containing human serum
Below, each entry is listed with its recorded pIC50.
Quick note: pIC50 means taking -log10 of the concentration in moles per liter.

I would be grateful if you could share the reported pIC50 for CCN(CC)c1ncc(N(C)S(=O)(=O)c2ccc(F)cc2)c(N[C@@H](Cc2ccc(OC(=O)N3CCCC3)cc2)C(=O)O)n1 . 5.76

Moving on to CCN(CC)c1ncc(N(C)S(=O)(=O)c2ccc(F)cc2)c(N[C@@H](Cc2ccc(OC(=O)N3CCC3)cc2)C(=O)O)n1 6.65

Moving on to CCN(CC)c1ncc(N(CC)S(=O)(=O)c2ccc(F)cc2)c(N[C@@H](Cc2ccc(OC(=O)N3CCCC3)cc2)C(=O)O)n1 6.22

Moving on to C#CCN(c1cnc(N(CC)CC)nc1N[C@@H](Cc1ccc(OC(=O)N2CCC2)cc1)C(=O)O)S(=O)(=O)c1ccc(F)cc1F 6.90

Moving on to CCN(CC)c1ncc(N(C)S(=O)(=O)c2ccc(Cl)cc2)c(N[C@@H](Cc2ccc(OC(=O)N3CCC3)cc2)C(=O)O)n1 6.68

Moving on to CCN(CC)c1ncc(N(C)S(=O)(=O)c2ccc(Cl)cc2)c(N[C@@H](Cc2ccc(OC(=O)N3CCCC3)cc2)C(=O)O)n1 5.64
